Record form. Attribute: GI50. Fill in for each entry.
Tested on: COLO 205
assay info: NCI tumour cell line growth inhibition, 48 h
Activity calls are given as the source filed them. No stated cut-off is given here; in the data, active = GI50 up to about 1.1 µM and inactive = higher.

// known answers, use as guide
molecule	GI50
O=C1CSC(c2ccc(Cl)cc2)N1c1ccc(-c2ccc(-n3c(-c4ccccc4)nc4ccccc4c3=O)cc2)cc1 (configuration not stated)	27.8 µM (inactive)
CN(C)C=C1C(Cl)=C(C=O)CC(C=O)=C1Cl	15.6 µM (inactive)

List the reported GI50 of each molecule below.
1. CN(N=O)C(=O)NC(CCCCNC(=O)OCc1ccccc1)C(=O)OCc1ccccc1 (configuration not stated)
2. COC(=O)CCC1(C)C2CCC1/C(=N/O)C2 (configuration not stated)
3. CC(=O)[C@H]1[C@@H](OCc2ccccc2)O[N+]([O-])=C(C)[C@@H]1c1ccccc1
4. Cc1nc2c(ccc3[nH]c4ccccc4c32)s1

1: 23.7 µM (inactive); 2: > 100 µM (inactive); 3: 42.7 µM (inactive); 4: 20.5 µM (inactive)

List the reported GI50 of each molecule below.
1. CCCCCCOc1ccc(NC2=C(Cl)C(=O)c3c(O)ccc(O)c3C2=O)cc1
2. Nc1c(/C=C/c2cc3cc(C4=NCCN4)ccc3o2)[nH]c2cc(C3=NCCN3)ccc12
3. Cc1ccc(C)c(N2C(=O)C(=O)C(c3nc4ccccc4s3)/C(=N/N)C2=O)c1 (configuration not stated)
4. O=C(O)c1ccc2c(c1)Cc1cc([N+](=O)[O-])ccc1-2

["1.78 µM (inactive)", "41.3 µM (inactive)", "> 39.3 µM (inactive)", "> 100 µM (inactive)"]

###

Tested on: LOX IMVI
assay info: NCI tumour cell line growth inhibition, 48 h
Active and inactive are the calls of the source. Rule as the data show it: active = GI50 up to about 1.1 µM and inactive = higher.
Give one outcome, nothing more. List: Y (active), N (inactive)

compound	class
CCOC(=O)CN(CC)C(=O)NC12CC3CC(CC(C3)C1)C2	N
C=C1C(=O)[C@@]23CC[C@H]4[C@@](C)(CCC[C@@]4(C)C(=O)OC)[C@@H]2CC[C@]1(O)C3	Y
CSc1c(C#N)c2n(c3ccccc3[n+]2C)c2ncccc12	N
C[n+]1cn(CC(=O)c2ccccc2)c(C(N)=O)c1N	N
O=C1NC(N2CCCC(CO)C2)=N/C1=C\c1cccs1 (configuration not stated)	N
COC(=O)/C=C/CC(=O)NS(C)(=O)=O	N
COC(=O)C1=C(C(=O)OC)C(OO)(c2ccccc2)OC1=O (configuration not stated)	N
CCOC(=O)CCCN	N
CCCCCCCCCCCCOC(=S)NCCCC	N
CNC(=O)N(C1=NCC(C)S1)c1ccc(C)c(C)c1 (configuration not stated)	N

Each compound tested received a call. Report the one for `CCCCCCCCCCCCCCCC(=O)N[C@H]1CCc2cc(OC)c(OC)c(OC)c2-c2ccc(SC)c(=O)cc21` .
N

Each compound tested received a call. Report the one for `CN1CCN(CCCNN)CC1` .
N

###

Test system: K562
assay info: NCI tumour cell line growth inhibition, 48 h
The source made the active and inactive calls. Rule as the data show it: active = GI50 up to about 1.1 µM and inactive = higher.
Give one outcome, nothing more. List: active, inactive

For orientation, consider the following solved cases.
molecule	class
CC(C)CC1NC(=O)C(C(C)C)NC(=O)CC(C)COC(=O)C(CC(C)C)N(C)C(=O)C(C(C)C)NC(=O)C(C(C)C)OC1=O (stereo not drawn)	inactive
COc1ccc(CCc2cc(OC)c(OC)c(OC)c2)cc1	active
CCOC(=O)C(C)c1cc(C2(C)OCCO2)c(C)o1 (stereo not drawn)	inactive

Each molecule tested received a call. Report the one for `NS(=O)(=O)c1nnc(NS(=O)(=O)c2ccccc2[N+](=O)[O-])s1` .
inactive

Each molecule tested received a call. Report the one for COP(=O)(/C=C/C(NC(=O)C(Cl)(Cl)Cl)c1ccccc1)OC (stereo not drawn) .
inactive

Each molecule tested received a call. Report the one for CC1OC(OC2C(OC(=O)[C@]34CCC(C)(C)C[C@H]3C3=CC[C@@H]5[C@@]6(C)CC[C@H](OC7OC(C(=O)O)C(O)C(O)C7O)C(C)(C)[C@@H]6CC[C@@]5(C)[C@]3(C)C[C@H]4O)OCC(O)C2O)C(O)C(O)C1OC1OCC(OC2OCC(O)C(O)C2O)C(O)C1O (stereo partly drawn) .
inactive

Each molecule tested received a call. Report the one for `Nc1nn2c(C(Br)Br)cc(C(Br)Br)nc2c1[N+](=O)[O-]` .
active

Each molecule tested received a call. Report the one for `Nc1ccc2c(=O)cc(-c3ccc(Br)s3)[nH]c2n1` .
active
